Reference for the values: ChEMBL document CHEMBL1759918

biological target: UniProtKB P50406; experiment: Antagonist activity at human recombinant 5HT6 receptor expressed in HEK293 cells assessed as inhibition of serotonin-induced cAMP production after 2 hrs; format: functional, cell-based
Sequence (P50406 whole entry): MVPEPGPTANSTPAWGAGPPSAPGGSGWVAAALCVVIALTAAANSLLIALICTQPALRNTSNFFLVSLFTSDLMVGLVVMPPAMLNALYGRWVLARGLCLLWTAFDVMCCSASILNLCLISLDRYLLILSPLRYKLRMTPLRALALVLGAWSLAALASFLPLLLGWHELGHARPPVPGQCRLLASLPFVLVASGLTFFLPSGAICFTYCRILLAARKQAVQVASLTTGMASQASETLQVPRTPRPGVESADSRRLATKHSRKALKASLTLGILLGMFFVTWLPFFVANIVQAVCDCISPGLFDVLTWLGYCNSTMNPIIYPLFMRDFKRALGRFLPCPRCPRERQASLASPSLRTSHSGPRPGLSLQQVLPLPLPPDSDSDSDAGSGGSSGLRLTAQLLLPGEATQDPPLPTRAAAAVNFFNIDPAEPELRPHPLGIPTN
readout-name: log10 Ki (log10 of the value in µM)
Record value = log10 of Ki given in µM.

> print(dat)
                                   compound  readout.name  measured.value
1  Cc1cc(C)n2nc(OCCN(C)C)c(S(=O)(=O)c3ccccc3)c2n1      log10 Ki            0.34

Input: Find log10 Ki (UniProtKB P50406) for the entry Cc1cc(C)n2nc(NCCN(C)C)c(S(=O)(=O)c3ccccc3)c2n1
Output: 0.41

Input: Field: log10 Ki (UniProtKB P50406). Entry: Cc1cc(C)n2nc(N(C)CCN(C)C)c(S(=O)(=O)c3ccccc3)c2n1
Output: -0.31

Input: Find the measured log10 Ki: item Cc1cc(C)n2nc(C)c(S(=O)(=O)c3ccccc3)c2n1 , target or system UniProtKB P50406.
Output: -1.05

Input: Param readout= log10 Ki; system= UniProtKB P50406; entry= Cc1cc(C)n2nc([S+](C)[O-])c(S(=O)(=O)c3ccccc3)c2n1 (stereo unspecified) ; returns value.
Output: 0.47

Input: So what log10 Ki did CCSc1nn2c(C)cc(C)nc2c1S(=O)(=O)c1ccccc1 get with UniProtKB P50406?
Output: -2.72
